Value source: patent US20240092819A1

Biological target: ASGPR (Rattus norvegicus (Rat), UniProt P02706+P08290)
Sequence (P02706 whole entry): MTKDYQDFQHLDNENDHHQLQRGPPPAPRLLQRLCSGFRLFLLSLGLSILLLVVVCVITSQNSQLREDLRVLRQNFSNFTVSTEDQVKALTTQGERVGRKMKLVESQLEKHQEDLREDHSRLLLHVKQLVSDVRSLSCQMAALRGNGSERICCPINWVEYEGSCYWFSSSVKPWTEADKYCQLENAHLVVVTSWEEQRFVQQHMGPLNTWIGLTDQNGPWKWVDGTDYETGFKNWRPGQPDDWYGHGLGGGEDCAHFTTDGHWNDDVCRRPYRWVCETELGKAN
Sequence (P08290 whole entry): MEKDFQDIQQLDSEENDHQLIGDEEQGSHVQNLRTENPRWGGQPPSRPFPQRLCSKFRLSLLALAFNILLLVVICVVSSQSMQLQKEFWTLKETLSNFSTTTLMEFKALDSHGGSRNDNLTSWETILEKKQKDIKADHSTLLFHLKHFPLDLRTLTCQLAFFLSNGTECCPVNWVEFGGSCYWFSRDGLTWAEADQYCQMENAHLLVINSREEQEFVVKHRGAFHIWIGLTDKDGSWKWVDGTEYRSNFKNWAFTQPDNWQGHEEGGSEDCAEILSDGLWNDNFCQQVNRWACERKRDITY
Assay: Fluorescent polarization (FP) ASGPR binding assay
Conditions: Table K, monomeric compounds; competition with 1 nM Cy5-labeled trimeric GalNAc tracer; Wistar rat liver membrane
The following compounds are shown together with reported pIC50 values.
Note: pIC50 values are expressed as the negative base-10 logarithm of concentration in M.

Solved entries (count: 5):
compound="O=C(CCCCCOCc1ccccc1)N1C[C@H](O)[C@H](O)[C@@H](n2cc(COc3ccccc3)nn2)C1 [Compound 131]" datavalue=2.75
compound="CNC(=O)C[C@H]1O[C@@H](n2cnc3c(=O)[nH]c(N)nc32)[C@H](O)[C@@H]1O [Compound 71]" datavalue=3.22
compound="CCCCNC(=O)C[C@H]1O[C@@H](n2cnc3c(=O)[nH]c(N)nc32)[C@H](O)[C@@H]1O [Compound 73]" datavalue=2.72
compound="O=C1[C@H](O)[C@H](O)[C@@H](n2cc(COc3ccccc3)nn2)CN1CCCCCCOCc1ccccc1 [Compound 140]" datavalue=3.18
compound="CC(=O)N[C@H]1CN(CCCCCCOCc2ccccc2)[C@H](CO)[C@H](O)[C@@H]1O [Compound 180]" datavalue=3.20

Query block: Look up pIC50: CN(C)C(=O)C[C@H]1O[C@@H](n2cnc3c(=O)[nH]c(N)nc32)[C@H](O)[C@@H]1O [Compound 72]
Result block: 4.05

Query block: Lookup CC(C)C(=O)Nc1nc2c(ncn2[C@@H]2O[C@H](CO)[C@@H](O)[C@H]2O)c(=O)[nH]1 [Compound 219, N-Isobuturylguanosine]
Result block: 3.89

====

Target: ASGPR (Rattus norvegicus (Rat), UniProt P02706+P08290)
Assay: Fluorescent polarization (FP) ASGPR binding assay
Details: Table K, monomeric compounds; competition with 1 nM Cy5-labeled trimeric GalNAc tracer; Wistar rat liver membrane
pIC50: −log10 of the molar value.
Please enter TRUE where pIC50 is greater than or equal to 3, and FALSE where it is lower.

Use these answered entries as a reference point.
compound="CC(=O)N[C@H]1CN[C@H](COC(=O)CCCCC(=O)OCc2ccccc2)[C@H](O)[C@@H]1O [Compound 161]" measurementtarget="ASGPR (Rattus norvegicus (Rat), UniProt P02706+P08290)" answerlabel=TRUE
compound="CC(=O)N[C@H]1CN(C(=O)CCCCC(=O)OCc2ccccc2)C[C@H](O)[C@@H]1O [Compound 112]" measurementtarget="ASGPR (Rattus norvegicus (Rat), UniProt P02706+P08290)" answerlabel=TRUE
compound="CC(=O)N[C@H]1CN(C(=O)CCCCCO)C[C@H](O)[C@@H]1O [Compound 129]" measurementtarget="ASGPR (Rattus norvegicus (Rat), UniProt P02706+P08290)" answerlabel=TRUE
compound="CC(=O)N[C@H]1C(O)O[C@H](CO)[C@H](O)[C@@H]1O (stereo partly shown) [Compound 193, reference compound]" measurementtarget="ASGPR (Rattus norvegicus (Rat), UniProt P02706+P08290)" answerlabel=TRUE
compound="Nc1nc2c(ncn2[C@@H]2O[C@H](CO)[C@@H](O)[C@H]2O)c(=O)[nH]1 [Compound 194]" measurementtarget="ASGPR (Rattus norvegicus (Rat), UniProt P02706+P08290)" answerlabel=TRUE

# input for lookup
Query block: Has CN(C)c1nc2c(ncn2[C@@H]2O[C@H](CO)[C@@H](O)[C@H]2O)c(=O)[nH]1 [Compound 198] a recorded pIC50 greater than or equal to 3?
Result block: FALSE

====

Biological target: ASGPR (Rattus norvegicus (Rat), UniProt P02706+P08290)
Test: Fluorescent polarization (FP) ASGPR binding assay
Settings: Table K, monomeric compounds; competition with 1 nM Cy5-labeled trimeric GalNAc tracer; Wistar rat liver membrane
experimentalReadout: IC50

compound="CC(=O)N[C@H]1CN(C(=O)CCCCCOCc2ccccc2)C[C@H](O)[C@@H]1O [Compound 128]" experimentalreadout=IC50 datavalue="451 µM"
compound="CCC[C@@H]1[C@H](O)[C@H](O)[C@@H](NC(C)=O)CN1C(=O)CCCCC(=O)O [Compound 148]" experimentalreadout=IC50 datavalue="370 µM"
compound="CC(=O)N[C@H]1CN(C(=O)OCc2ccccc2)C[C@H](O)[C@@H]1O [Compound 121]" experimentalreadout=IC50 datavalue="563 µM"
compound="CC(=O)N[C@H]1CN(C(=O)CCCCC(=O)OCc2ccccc2)[C@@H](CO)[C@H](O)[C@@H]1O [Compound 162]" experimentalreadout=IC50 datavalue="576 µM"

Kindly consider the entry below.
Query block: Look up IC50: CCC[C@@H]1[C@H](O)[C@H](O)[C@@H](NC(C)=O)CN1C(=O)CCCCC(=O)OCc1ccccc1 [Compound 146]
Result block: 488 µM
